Experiment: beta-lactam sensitization of Mtb H37Rv, H37Rv (AID 434955);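 further: growth measured after seven days incubation then overnight dye step; 0% = bacteria only wells and 100% = bacteria with antibiotic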
Conditions: M. tuberculosis H37Rv growth with meropenem, percent inhibition; at 25 µM; hits give high values
Screen size: about 330,000 compounds; about 880 (0.27%) were called active. Inconclusive results (about 1%) are left out. A selection follows.
# maps each entry to its inhibition
The figure you give is taken to be in %; do not add the unit.

INSERT INTO results (compound, value_unit, numeric_result) VALUES
  ('COc1cccc(N2CC(NC(=O)c3ccc4ccccc4c3)CC2=O)c1 (stereo not given)', '%', -3.62),
  ('CCc1cccc(C)c1NC(=O)COC(=O)Cc1ccsc1', '%', -1.39),
  ('COc1cc(NS(=O)(=O)c2ccc(NC(=O)c3ccc(S(=O)(=O)N4CCCCC4)cc3)cc2)ncn1', '%', -5.84),
  ('NC(=O)C1CCN(C(=O)/C(=C/c2ccco2)NC(=O)c2ccccc2)CC1', '%', -2.14),
  ('NC(=O)COC(=O)c1sc2cc(F)ccc2c1Cl', '%', 40.4);

The value of inhibition measured for the compound CCn1c(CNC(=O)c2ccco2)nnc1SCC(=O)Nc1cccc(F)c1 turned out to be -8.4

The value of inhibition measured for the compound CCc1ccc(/C=N/NC(=O)c2ccc(OC3CCCC3)cc2)s1 turned out to be 2.88

The value of inhibition measured for the compound O=S(=O)(c1ccc(F)cc1)N1CCN=C1SCc1cccc(F)c1 turned out to be 9.8

The value of inhibition measured for the compound O=c1[nH]c(=O)n(Cc2ccco2)c2c1C(C(F)(F)F)(C(F)(F)F)N=C(c1ccco1)N2 turned out to be -12.9

The value of inhibition measured for the compound CCOc1ccc2ccccc2c1/C=N/NC(=O)c1c(C)cc(C)[nH]c1=O turned out to be -16.1
